biological target: T1, recombinant human IL-6 (human, UniProt P05231 30-212); assay: SPR (Biacore), supernatant IgG on Protein A, 25 C
T1 construct: Flowed in solution over the captured antibodies
T1 sequence (P05231 30-212 limits assumed): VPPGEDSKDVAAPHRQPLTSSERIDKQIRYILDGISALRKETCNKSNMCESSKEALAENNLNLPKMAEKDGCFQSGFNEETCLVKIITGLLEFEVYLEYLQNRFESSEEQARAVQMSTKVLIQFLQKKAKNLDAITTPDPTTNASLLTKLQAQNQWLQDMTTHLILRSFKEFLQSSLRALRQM
Listed next: entries and their corresponding kon.
# number only, unit M⁻¹ s⁻¹ dropped from output

- Binder: "anti-IL-6 antibody, heavy chain D62F, light chain WT (antibody, IgG1, V domains shown, Full IgG1 tested; V domains derived as in m2) VH: EVQLVESGGGLVQPGGSLRLSCAASGFTFSPFAMSWVRQAPGKGLEWVAKISPGGSWTYYSFTVTGRFTFSLDTSKSTAYLQMNSLRAEDTAVYYCARQLWGYYALDIWGQGTLVTVSS VL: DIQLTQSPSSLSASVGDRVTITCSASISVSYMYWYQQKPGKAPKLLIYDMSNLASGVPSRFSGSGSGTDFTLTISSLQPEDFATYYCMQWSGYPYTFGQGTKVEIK"
  kon (M⁻¹ s⁻¹): 420000

Please turn your attention to the following entry.
Ask | Which value of kon has been reported for anti-IL-6 antibody, heavy chain WT, light chain S26G (antibody, IgG1, V domains shown, Full IgG1 tested; V domains derived as in m2) VH: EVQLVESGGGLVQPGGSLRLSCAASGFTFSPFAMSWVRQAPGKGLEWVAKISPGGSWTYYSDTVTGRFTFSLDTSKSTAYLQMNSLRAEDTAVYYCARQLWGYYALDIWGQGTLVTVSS VL: DIQLTQSPSSLSASVGDRVTITCSAGISVSYMYWYQQKPGKAPKLLIYDMSNLASGVPSRFSGSGSGTDFTLTISSLQPEDFATYYCMQWSGYPYTFGQGTKVEIK in the records?
Reply | 793000
